I'd appreciate it if you could supply inhibition values for the items below.
- test_system: Short transient receptor potential channel 3 (Homo sapiens)
- protocol_description: Antagonist activity at human TRPC3 expressed in HEK293 cells assessed as inhibition of carbachol-induced activity at 10 uM measured after 48 hrs by Whole-cell patch clamp electrophysiology relative to control
- Type: cell-based
- experimental_parameters: filed as antagonist

Req: Look up inhibition of `CCN(CC)C(=O)c1cnn(-c2ccc(-n3ccc(Cl)c(Cl)c3=O)cc2)c1C(F)(F)F` and report it.
Resp: > 90%

Req: Fill in reported inhibition for this entry: `CC(C)CNC(=O)c1cnn(-c2ccc(-n3ccc(Cl)c(Cl)c3=O)cc2)c1C(F)(F)F`
Resp: > 90%

Req: Using the record for `CCc1nnc(-c2cnn(-c3ccc(-n4ccc(Cl)c(Cl)c4=O)cc3)c2C(F)(F)F)o1` , state its measured inhibition.
Resp: > 90%

Req: State, in one line, measured inhibition of `CCNC(=O)c1nn(-c2ccc(-n3ccc(Cl)c(Cl)c3=O)cc2)nc1C(F)(F)F`
Resp: > 80%

Req: Let me know recorded inhibition for `CCNCc1cnn(-c2ccc(-n3ccc(Cl)c(Cl)c3=O)cc2)c1C(F)(F)F` , thanks.
Resp: > 97%

Req: Report inhibition, nothing else, for this compound: `CCNC(=O)c1cnn(-c2ccc(-n3ccc(Cl)c(Cl)c3=O)cc2)c1C#N`
Resp: > 80%

Req: Dear colleague, please send me the reported inhibition for `CNC(=O)c1cnn(-c2ccc(-n3ccc(Cl)c(Cl)c3=O)cc2)c1C(F)(F)F` when you can.
Resp: > 80%

Req: Let me know recorded inhibition for `CC(=O)c1cnn(-c2ccc(-n3ccc(Cl)c(Cl)c3=O)cc2)c1C(F)(F)F` , thanks.
Resp: > 80%

Req: Please list inhibition recorded for the compound `CCN(CC)Cc1cnn(-c2ccc(-n3ccc(Cl)c(Cl)c3=O)cc2)c1C(F)(F)F`
Resp: > 80%

This collection of values is drawn from ChEMBL document CHEMBL6078670.
